Recorded PBM binding z-score values for a group of sequences are listed next.
- Test system: FXR:RXRa (NR concentration 270 nM, RXRa partner concentration 90 nM)
- experiment: PBM binding z-score (relative to random genomic background probes); higher = stronger binding; sequences stand for … in GC…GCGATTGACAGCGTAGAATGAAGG

sequenceChain: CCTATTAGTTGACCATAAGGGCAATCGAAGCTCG
PBM binding z-score: 0.68
--
sequenceChain: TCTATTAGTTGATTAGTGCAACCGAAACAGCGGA
PBM binding z-score: 0.567
--
sequenceChain: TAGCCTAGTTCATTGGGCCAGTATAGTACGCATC
PBM binding z-score: -0.0548
--
sequenceChain: ACTATTAGTTGAGACGAGGTCAACCGATAGGTTG
PBM binding z-score: 3.42
--
sequenceChain: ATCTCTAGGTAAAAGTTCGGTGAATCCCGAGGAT
PBM binding z-score: 0.161

I would be grateful if you could share the reported PBM binding z-score for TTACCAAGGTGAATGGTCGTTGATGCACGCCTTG .
0.766

Reported PBM binding z-score, sequence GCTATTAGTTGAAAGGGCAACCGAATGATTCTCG : ____
0.555

Given the sequence CTACCTAGGTGAACAAGGTCGTTGATTACTATTC , what is its reported PBM binding z-score?
0.921

// query PBM binding z-score value for entry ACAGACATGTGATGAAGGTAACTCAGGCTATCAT
0.000592

====

A collection of sequences and their measured PBM binding z-score
- System: RARa:RXR (NR concentration 270 nM, RXRa partner concentration 90 nM)
- experiment: PBM binding z-score (relative to random genomic background probes); higher = stronger binding; sequences stand for … in GC…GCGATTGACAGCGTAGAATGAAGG
Number only, please.

sequenceChain: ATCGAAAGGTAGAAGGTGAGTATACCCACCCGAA
PBM binding z-score: 0.388
//
sequenceChain: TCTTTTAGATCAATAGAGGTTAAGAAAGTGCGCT
PBM binding z-score: 2.08
//
sequenceChain: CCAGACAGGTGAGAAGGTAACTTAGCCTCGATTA
PBM binding z-score: 0.0746

Record request: PBM binding z-score value, item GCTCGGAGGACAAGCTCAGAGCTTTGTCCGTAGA
-0.828

Entry under review: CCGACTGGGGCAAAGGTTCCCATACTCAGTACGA . Reported PBM binding z-score?
0.588

====

- Tested on: LXRb:RXRa (NR concentration 270 nM, RXRa partner concentration 90 nM)
- experiment: PBM binding z-score (relative to random genomic background probes); higher = stronger binding; sequences stand for … in GC…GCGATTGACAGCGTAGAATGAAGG
Catalogue of sequences with associated PBM binding z-score
// no unit string in output, number only

Here is how some sequences turned out for PBM binding z-score.
sequenceChain: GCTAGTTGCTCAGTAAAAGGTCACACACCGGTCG
reportedMetric: PBM binding z-score
reading: 4.02
//
sequenceChain: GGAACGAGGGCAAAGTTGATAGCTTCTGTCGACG
reportedMetric: PBM binding z-score
reading: 0.608

I'm curious: which PBM binding z-score was measured for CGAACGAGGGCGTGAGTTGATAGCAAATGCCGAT tested on LXRb:RXRa (NR concentration 270 nM, RXRa partner concentration 90 nM)?
-0.468

Query PBM binding z-score on LXRb:RXRa (NR concentration 270 nM, RXRa partner concentration 90 nM) for CGTCCAAGGTCAATGCTAGTTCAGTGAAAGCATT
3.86

GET /values?readout=PBM binding z-score&system=LXRb:RXRa (NR concentration 270 nM, RXRa partner concentration 90 nM)&item= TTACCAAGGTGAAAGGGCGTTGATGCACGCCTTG
0.742

Param readout = PBM binding z-score; param system = LXRb:RXRa (NR concentration 270 nM, RXRa partner concentration 90 nM); param query = ATCGAAAGGTCGTGATGTGAGTATACAGAAAGGC ; response: value
3.08

Requested read-out PBM binding z-score, target or system LXRb:RXRa (NR concentration 270 nM, RXRa partner concentration 90 nM), entry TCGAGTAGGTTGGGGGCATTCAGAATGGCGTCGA
3.96

The reported measurements were obtained from the supplement of paper PMC6555819.
